system: Escherichia coli TOP10; experiment: shrunken log2 fold change of peptide-encoding DNA abundance (4.5 h post-induction vs induction); higher = less antimicrobial activity (less host growth inhibition); conditions: time post-induction: 4.5 h; library: site-saturation at positions 5, 18, 19, 20
I would appreciate it if you labelled entries Criterion met when shrunken log2 fold change is 0.02 or higher, otherwise Criterion not met.

Does the sequence RRIRWRPPRLPRPRPRPIDGPRP have recorded shrunken log2 fold change that is 0.02 or more?
Criterion met

shrunken log2 fold change >= 0.02 for RRIRERPPRLPRPRPRPGRGPRP ?
Criterion met

Exam item: decide whether the reported shrunken log2 fold change for RRIRNRPPRLPRPRPRPWDLPRP is at least 0.02.
Criterion not met

Does the reported shrunken log2 fold change for RRIRVRPPRLPRPRPRPGWFPRP fall at or above the 0.02 mark?
Criterion met

Confirm if shrunken log2 fold change reported for the sequence RRIRYRPPRLPRPRPRPKIHPRP is 0.02 or above.
Criterion not met

Please tell me: is the sequence RRIRNRPPRLPRPRPRPDYVPRP at or over 0.02 in terms of shrunken log2 fold change?
Criterion not met

Could you please find out whether RRIRRRPPRLPRPRPRPWWWPRP has shrunken log2 fold change that meets 0.02 or exceeds it?
Criterion met

Is reported shrunken log2 fold change greater than or equal to 0.02 here: RRIRPRPPRLPRPRPRPCQGPRP
Criterion met

Item RRIRKRPPRLPRPRPRPTQVPRP with shrunken log2 fold change of 0.02 or above?
Criterion met

Please check the record RRIRMRPPRLPRPRPRPYMQPRP and state if its shrunken log2 fold change is at or above 0.02.
Criterion not met

Entry RRIRKRPPRLPRPRPRPRESPRP : is its shrunken log2 fold change no less than 0.02?
Criterion met

Hi, just wondering whether RRIRKRPPRLPRPRPRPNDWPRP shows shrunken log2 fold change of 0.02 or higher.
Criterion met

Determine whether measured shrunken log2 fold change meets or exceeds 0.02 for RRIRFRPPRLPRPRPRPQMMPRP
Criterion not met

Tell me whether shrunken log2 fold change is at least 0.02 here: RRIRERPPRLPRPRPRPAAAPRP
Criterion met

Could you verify whether the entry RRIRPRPPRLPRPRPRPSLCPRP shows shrunken log2 fold change of no less than 0.02?
Criterion not met

---

system: Escherichia coli TOP10; assay: shrunken log2 fold change of peptide-encoding DNA abundance (4.5 h post-induction vs induction); higher = less antimicrobial activity (less host growth inhibition); settings: time post-induction: 4.5 h; library: site-saturation at positions 5, 18, 19, 20
Classification field: enter Met for shrunken log2 fold change values not below -0.05, Not met for values below it.

API: above_or_equal(metric=shrunken log2 fold change, cutoff=-0.05) for item RRIRCRPPRLPRPRPRPCNMPRP
Not met

# bool: shrunken log2 fold change of RRIRSRPPRLPRPRPRPLLLPRP >= -0.05
Met

Could you tell me if the measured shrunken log2 fold change of RRIRNRPPRLPRPRPRPHSRPRP reaches -0.05 or more?
Not met

Test whether the sequence RRIRFRPPRLPRPRPRPHNSPRP records shrunken log2 fold change of -0.05 or higher.
Not met

Identify whether the reported shrunken log2 fold change of the following sequence is -0.05 or greater: RRIRRRPPRLPRPRPRPCYEPRP
Met

Would you say RRIRVRPPRLPRPRPRPIRKPRP shows shrunken log2 fold change at minimum -0.05?
Not met

Kindly determine if shrunken log2 fold change recorded for RRIRRRPPRLPRPRPRPESTPRP is above or exactly -0.05.
Met

Exam item: decide whether the reported shrunken log2 fold change for RRIRFRPPRLPRPRPRPMDGPRP is at least -0.05.
Met

I'd appreciate it if you could say whether RRIRWRPPRLPRPRPRPWESPRP has shrunken log2 fold change at least equal to -0.05.
Met

# check: shrunken log2 fold change of RRIRVRPPRLPRPRPRPEVCPRP is greater than or equal to -0.05
Met

Test whether the sequence RRIRCRPPRLPRPRPRPQWCPRP records shrunken log2 fold change of -0.05 or higher.
Not met

Does the reported shrunken log2 fold change for RRIRHRPPRLPRPRPRPFLYPRP fall at or above the -0.05 mark?
Not met

Evaluate RRIRWRPPRLPRPRPRPRGGPRP : shrunken log2 fold change at minimum -0.05?
Met

Is reported shrunken log2 fold change greater than or equal to -0.05 here: RRIRSRPPRLPRPRPRPSRYPRP
Not met

Given the entry RRIRERPPRLPRPRPRPEADPRP , answer whether its shrunken log2 fold change meets or surpasses -0.05.
Met

---

system: Escherichia coli TOP10; test: shrunken log2 fold change of peptide-encoding DNA abundance (4.5 h post-induction vs induction); higher = less antimicrobial activity (less host growth inhibition); details: time post-induction: 4.5 h; library: site-saturation at positions 5, 18, 19, 20;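 further: peptides expressed intracellularly from a pBAD plasmid library in pooled LB shake-flask culture, induced with 0.3% L-arabinose, DNA abundance read by NGS, three biological replicates, DESeq2 with apeglm shrinkage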
Label not fulfilled if shrunken log2 fold change falls below 0.02; label fulfilled in every other case.

Test whether the sequence RRIRCRPPRLPRPRPRPQPYPRP records shrunken log2 fold change of 0.02 or higher.
not fulfilled

Does RRIRQRPPRLPRPRPRPGLVPRP have a reported shrunken log2 fold change of at least 0.02?
fulfilled

Does the sequence RRIRARPPRLPRPRPRPQFGPRP have recorded shrunken log2 fold change that is 0.02 or more?
not fulfilled

shrunken log2 fold change >= 0.02 for RRIRHRPPRLPRPRPRPSFNPRP ?
not fulfilled

Determine whether this sequence has shrunken log2 fold change no lower than 0.02: RRIRGRPPRLPRPRPRPLVPPRP
fulfilled

# check: shrunken log2 fold change of RRIRERPPRLPRPRPRPKHWPRP is greater than or equal to 0.02
fulfilled

Dear colleague, could you confirm whether RRIRHRPPRLPRPRPRPGDEPRP has shrunken log2 fold change at or above 0.02?
not fulfilled

State whether the measured shrunken log2 fold change reaches 0.02, counting equality as reaching it, for RRIRYRPPRLPRPRPRPPVLPRP
not fulfilled

Is it the case that RRIRPRPPRLPRPRPRPFWYPRP has shrunken log2 fold change reaching or exceeding 0.02?
not fulfilled

Reported shrunken log2 fold change at or above 0.02? RRIRNRPPRLPRPRPRPKKSPRP
fulfilled

Hello, I need to know if RRIRWRPPRLPRPRPRPHALPRP has measured shrunken log2 fold change not below 0.02. Thanks!
not fulfilled

Does the sequence RRIRKRPPRLPRPRPRPSYQPRP have recorded shrunken log2 fold change that is 0.02 or more?
not fulfilled

Could you please find out whether RRIRERPPRLPRPRPRPHPKPRP has shrunken log2 fold change that meets 0.02 or exceeds it?
not fulfilled

Does shrunken log2 fold change meet or surpass 0.02 for RRIRYRPPRLPRPRPRPELGPRP ?
not fulfilled

Can RRIRGRPPRLPRPRPRPINHPRP be said to have shrunken log2 fold change at or above 0.02?
not fulfilled

Would you say RRIRYRPPRLPRPRPRPGCNPRP shows shrunken log2 fold change at minimum 0.02?
not fulfilled

Identify whether the reported shrunken log2 fold change of the following sequence is 0.02 or greater: RRIRGRPPRLPRPRPRPMQRPRP
fulfilled

Reported shrunken log2 fold change reaches at least 0.02 for RRIRMRPPRLPRPRPRPFRIPRP ?
fulfilled

Record RRIRHRPPRLPRPRPRPWFCPRP ; criterion: shrunken log2 fold change no lower than 0.02. Met?
not fulfilled

Evaluate RRIRFRPPRLPRPRPRPMENPRP : shrunken log2 fold change at minimum 0.02?
not fulfilled

Entry RRIRKRPPRLPRPRPRPSQMPRP : is its shrunken log2 fold change no less than 0.02?
fulfilled

Has RRIRNRPPRLPRPRPRPDMGPRP a recorded shrunken log2 fold change greater than or equal to 0.02?
not fulfilled

Is reported shrunken log2 fold change greater than or equal to 0.02 here: RRIRERPPRLPRPRPRPKSEPRP
fulfilled

Threshold query (shrunken log2 fold change >= 0.02) on RRIRIRPPRLPRPRPRPHQSPRP
not fulfilled

Identify whether the reported shrunken log2 fold change of the following sequence is 0.02 or greater: RRIRMRPPRLPRPRPRPTTHPRP
fulfilled

Is shrunken log2 fold change for RRIRTRPPRLPRPRPRPRCIPRP at or above 0.02?
fulfilled

Check if shrunken log2 fold change >= 0.02 (inclusive). Item: RRIRVRPPRLPRPRPRPTWAPRP
fulfilled

// inclusive: shrunken log2 fold change at least 0.02? input: RRIRERPPRLPRPRPRPRKMPRP
not fulfilled

Could you tell me if the measured shrunken log2 fold change of RRIRPRPPRLPRPRPRPDANPRP reaches 0.02 or more?
fulfilled

Would you say RRIRPRPPRLPRPRPRPLERPRP shows shrunken log2 fold change at minimum 0.02?
fulfilled

Please indicate if the recorded shrunken log2 fold change for RRIRFRPPRLPRPRPRPKIFPRP meets or exceeds 0.02.
not fulfilled

Textbook exercise: given the entry RRIRLRPPRLPRPRPRPWHDPRP , state whether its shrunken log2 fold change is greater than or equal to 0.02.
not fulfilled

Is it the case that RRIRMRPPRLPRPRPRPACTPRP has shrunken log2 fold change reaching or exceeding 0.02?
fulfilled

Does RRIRHRPPRLPRPRPRPEYKPRP have a reported shrunken log2 fold change of at least 0.02?
not fulfilled

Check if shrunken log2 fold change >= 0.02 (inclusive). Item: RRIRSRPPRLPRPRPRPECLPRP
fulfilled

Could you verify whether the entry RRIRTRPPRLPRPRPRPTHEPRP shows shrunken log2 fold change of no less than 0.02?
fulfilled

Entry RRIRNRPPRLPRPRPRPWDMPRP : is its shrunken log2 fold change no less than 0.02?
not fulfilled

# check: shrunken log2 fold change of RRIRQRPPRLPRPRPRPGNNPRP is greater than or equal to 0.02
not fulfilled

// inclusive: shrunken log2 fold change at least 0.02? input: RRIRKRPPRLPRPRPRPTHPPRP
fulfilled

Is it the case that RRIRFRPPRLPRPRPRPRAQPRP has shrunken log2 fold change reaching or exceeding 0.02?
fulfilled

Given the entry RRIRMRPPRLPRPRPRPTSEPRP , answer whether its shrunken log2 fold change meets or surpasses 0.02.
fulfilled

Please indicate if the recorded shrunken log2 fold change for RRIRHRPPRLPRPRPRPFVCPRP meets or exceeds 0.02.
not fulfilled

Dear colleague, could you confirm whether RRIRQRPPRLPRPRPRPHMFPRP has shrunken log2 fold change at or above 0.02?
not fulfilled

API: above_or_equal(metric=shrunken log2 fold change, cutoff=0.02) for item RRIRFRPPRLPRPRPRPAEEPRP
fulfilled

Has RRIRVRPPRLPRPRPRPNVTPRP a recorded shrunken log2 fold change greater than or equal to 0.02?
not fulfilled

API: above_or_equal(metric=shrunken log2 fold change, cutoff=0.02) for item RRIRFRPPRLPRPRPRPWWSPRP
not fulfilled

Evaluate RRIRKRPPRLPRPRPRPNQMPRP : shrunken log2 fold change at minimum 0.02?
fulfilled

Say whether RRIRDRPPRLPRPRPRPADFPRP shows shrunken log2 fold change of 0.02 or more.
not fulfilled

Please tell me: is the sequence RRIRHRPPRLPRPRPRPDIEPRP at or over 0.02 in terms of shrunken log2 fold change?
fulfilled

Determine whether measured shrunken log2 fold change meets or exceeds 0.02 for RRIRIRPPRLPRPRPRPQYFPRP
not fulfilled

API: above_or_equal(metric=shrunken log2 fold change, cutoff=0.02) for item RRIRARPPRLPRPRPRPLPCPRP
fulfilled

Record RRIRNRPPRLPRPRPRPGKNPRP ; criterion: shrunken log2 fold change no lower than 0.02. Met?
fulfilled

Could you verify whether the entry RRIRERPPRLPRPRPRPILLPRP shows shrunken log2 fold change of no less than 0.02?
not fulfilled
